The molecules below have reported ΔTm for Calcium/calmodulin-dependent protein kinase type 1D (Homo sapiens).
Only the number, expressed in °C, is required.

Worked examples follow.
N=C(N)NCCNS(=O)(=O)c1cccc2cnccc12 ... 0
Cn1cc(/C=C2/C(=O)Nc3ccc(S(N)(=O)=O)cc32)c2ccccc21 ... 2
O=C(O)Cc1ccc(O)c([N+](=O)[O-])c1 ... 0
C[S+]([O-])c1ccc(CSc2nc(-c3ccc(F)cc3)c(-c3ccncc3)[nH]2)cc1 (stereo not given) ... 0

In the following, a different molecule is considered.
For the molecule NCCNS(=O)(=O)c1cccc2c(Cl)cccc12 , the measured ΔTm on Calcium/calmodulin-dependent protein kinase type 1D (Homo sapiens) was 0

---

The compounds below have reported ΔTm for Serine/threonine-protein kinase 26 (Homo sapiens) (UniProt Q9P289).
Only the number, expressed in °C, is required.

Worked examples follow.
CC(=O)O/N=C1/C(=C2/C(=O)Nc3cc(Br)ccc32)Nc2ccccc21 [6-BROMOINDIRUBIN-3'-ACETOXIME] ... 0.1
COc1cc2ncnc(Nc3cccc(O)c3)c2cc1OC ... 0.1

In the following, a different compound is considered.
Sure, the documented ΔTm for N#C/C(=C(/N)Sc1ccc(N)cc1)c1ccccc1C(F)(F)F is 1

---

Biological target: Casein kinase I isoform gamma-2 (Homo sapiens)
Binary call on ΔTm: true (1) from 0.5 °C upward, false (0) beneath that.

Here's what some known entries look like.
O=C1Nc2ccc(I)cc2/C1=C\c1cc(Br)c(O)c(Br)c1 ... true (1)
Clc1ccc(Nc2nnc(Cc3ccncc3)c3ccccc23)cc1 ... false (0)
Oc1cc(O)cc(/C=C/c2ccc(O)c(O)c2)c1 [PICEATANNOL] ... false (0)
C=CNC#N ... false (0)
O=C1NC(=O)c2c1c1c3ccccc3n3c1c1c2c2ccccc2n1C1CCC3O1 ... true (1)

Does the compound c1ccc(-c2n[nH]c3c2oc2ccccc23)cc1 have recorded ΔTm that is 0.5 °C or more? true (1)

---

The compounds below have reported ΔTm for Serine/threonine-protein kinase 10 (Homo sapiens) (UniProt O94804).
Only the number, expressed in °C, is required.

Worked examples follow.
CN(C)C[C@@H]1CCn2cc(c3ccccc32)C2=C(C(=O)NC2=O)c2cn(c3ccccc23)CCO1 ... 7.2
CC(C)n1cnc2c(NCc3ccccc3)nc(NCCCO)nc21 ... -0.4
Cn1cc(/C=C2/C(=O)Nc3ccc(S(N)(=O)=O)cc32)c2ccccc21 ... 6.3

In the following, a different compound is considered.
For the compound O=c1c(-c2ccc(F)cc2)c(-c2ccncc2)[nH]n1-c1ccc(Cl)cc1 , the measured ΔTm on Serine/threonine-protein kinase 10 (Homo sapiens) (UniProt O94804) was 4.3

---

Target: Calcium/calmodulin-dependent protein kinase type 1G (Homo sapiens)
Binary call on ΔTm: label 1 from 0.2 °C upward, label 0 beneath that.

CC(=O)O/N=C1/C(=C2/C(=O)Nc3cc(Br)ccc32)Nc2ccccc21 ... label 0
CC(C)c1cc(/C=C(\C#N)C(=O)NCCCc2ccccc2)cc(C(C)C)c1O ... label 1
Cc1ccc(NC(=O)c2cccc(N(C)C)c2)cc1NC(=O)c1ccc(O)cc1 ... label 1
CC(C)N(CCO)c1nc(Nc2cccc(Cl)c2)c2ncn(C(C)C)c2n1 ... label 0
CC(C)n1cnc2c(NCc3ccccc3O)nc(NCCCO)nc21 ... label 0

Does the compound N#CCCc1ccc2c(c1)-c1[nH]c3ccc([N+](=O)[O-])cc3c1CC(=O)N2 have recorded ΔTm that is 0.2 °C or more? label 1

Does the compound CN(C)c1ncnc2nc[nH]c12 have recorded ΔTm that is 0.2 °C or more? label 0

Does the compound COc1cc2ncnc(Nc3ccc(F)c(Cl)c3)c2cc1OCCCN1CCOCC1 have recorded ΔTm that is 0.2 °C or more? label 1

Does the compound Oc1cc(O)cc(/C=C/c2ccc(O)c(O)c2)c1 have recorded ΔTm that is 0.2 °C or more? label 1

Does the compound Cn1cc(C2=C(c3cn(CCCN)c4ccccc34)C(=O)NC2=O)c2ccccc21 have recorded ΔTm that is 0.2 °C or more? label 1
